- assayed.target: Cannabinoid receptor 1 (Rattus norvegicus) (UniProt P20272)
- Sequence (P20272 whole entry): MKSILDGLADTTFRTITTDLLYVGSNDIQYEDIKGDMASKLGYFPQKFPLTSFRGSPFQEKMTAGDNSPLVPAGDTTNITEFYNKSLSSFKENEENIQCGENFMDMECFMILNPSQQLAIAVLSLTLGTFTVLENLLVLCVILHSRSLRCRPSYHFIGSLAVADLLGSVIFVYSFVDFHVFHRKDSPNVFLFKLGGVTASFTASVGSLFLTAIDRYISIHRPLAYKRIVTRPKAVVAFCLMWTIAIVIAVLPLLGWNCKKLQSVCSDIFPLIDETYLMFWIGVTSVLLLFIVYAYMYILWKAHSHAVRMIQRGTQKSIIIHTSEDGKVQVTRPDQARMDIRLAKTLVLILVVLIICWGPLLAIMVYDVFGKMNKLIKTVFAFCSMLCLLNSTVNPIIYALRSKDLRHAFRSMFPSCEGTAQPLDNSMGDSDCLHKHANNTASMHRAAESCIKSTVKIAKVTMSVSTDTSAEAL
- assay.procedure: Displacement of [3H]CP55,940 from CB1 receptor in rat brain cortical membranes at 10 uM
- Assay type: cell membranes
Assign class by inhibition: not lower than 6% means Satisfied; lower than 6% means Not satisfied.

Answered cases to consult:
>  <molecule.smiles>
O=C1N=C2SCCCN2C1(c1ccccc1)c1ccccc1

>  <cat>
Not satisfied

$$$$
>  <molecule.smiles>
Cc1ccc(C(=O)Oc2cccc(/C=C3\N=C4SCCCCN4C3=O)c2)cc1

>  <cat>
Not satisfied

$$$$
>  <molecule.smiles>
O=C1/C(=C/c2cccc(OCc3ccccc3Cl)c2)N=C2SCCCCN12

>  <cat>
Satisfied

$$$$
>  <molecule.smiles>
O=C1/C(=C/c2cccc([N+](=O)[O-])c2)N=C2SCCCN12

>  <cat>
Satisfied

$$$$

Input line: Given the entry O=C(Oc1cccc(/C=C2\N=C3SCCCN3C2=O)c1)c1ccc(Cl)cc1 , answer whether its inhibition meets or surpasses 6%.
Output line: Satisfied

----------
I'd appreciate it if you could supply inhibition values for the items below.
- assayed.target: Cannabinoid receptor 2 (Homo sapiens, UniProt P34972)
- Sequence (P34972 whole entry): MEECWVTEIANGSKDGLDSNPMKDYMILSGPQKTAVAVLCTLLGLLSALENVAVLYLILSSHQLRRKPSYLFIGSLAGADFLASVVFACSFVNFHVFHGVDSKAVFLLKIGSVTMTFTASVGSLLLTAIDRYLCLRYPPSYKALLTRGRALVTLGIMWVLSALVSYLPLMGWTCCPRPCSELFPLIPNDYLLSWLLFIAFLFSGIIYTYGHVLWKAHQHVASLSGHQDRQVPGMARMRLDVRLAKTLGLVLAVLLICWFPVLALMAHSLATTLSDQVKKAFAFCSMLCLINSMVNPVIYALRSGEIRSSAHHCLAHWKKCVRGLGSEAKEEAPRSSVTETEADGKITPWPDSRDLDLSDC
- assay.procedure: Displacement of [3H]CP55,940 from human recombinant CB2 receptor expressed in HEK293 cells at 10 uM
- Assay type: cell-based
One number for each entry, in %.

>  <compound>
O=C1N2CCSC2=NC1(c1ccccc1)c1ccccc1

>  <unit.annotation>
%

>  <inhibition>
3

$$$$
>  <compound>
O=C1/C(=C/c2cccc([N+](=O)[O-])c2)N=C2SCCCN12

>  <unit.annotation>
%

>  <inhibition>
10

$$$$

Go through the list and state inhibition for each entry.
1. O=C1N2CCCCSC2=NC1(c1ccccc1)c1ccccc1
2. O=C1/C(=C/c2cccc(Oc3ccccc3)c2)N=C2SCCCCN12
3. O=C1/C(=C/c2cccc(Cl)c2)N=C2SCCCN12
4. CCOC(=O)C1CN2C(=NC(=O)C2(c2ccccc2)c2ccccc2)S1 (stereo not drawn)
5. O=C1/C(=C/c2cccc(OCc3ccccc3Cl)c2)N=C2SCCCN12
6. O=C1N=C2SCCCN2C1(c1ccccc1)c1ccccc1
7. O=C1/C(=C/c2ccc(Cl)cc2)N=C2SCCCN12

Output line:
14
21
2
-5
9
9
23

----------
- assayed.target: Cannabinoid receptor 2 (Homo sapiens, UniProt P34972)
- assay.procedure: Displacement of [3H]CP55,940 from human recombinant CB2 receptor expressed in HEK293 cells at 10 uM
- Type: cell-based
Threshold rule: inhibition greater than or equal to 6% is condition met; below that, condition not met.

Illustrative cases are given below, each with its answer.
>  <compound>
COc1cccc(/C=C2\N=C3SCCCN3C2=O)c1OC

>  <cat>
condition met

$$$$
>  <compound>
O=C1/C(=C/c2cccc(F)c2F)N=C2SCCCN12

>  <cat>
condition not met

$$$$
>  <compound>
O=C1/C(=C/c2ccc(Cl)cc2Cl)N=C2SCCCN12

>  <cat>
condition met

$$$$

Input line: Could you please find out whether C/C(=C1/N=C2SCCCCN2C1=O)c1ccccc1 has inhibition that meets 6% or exceeds it?
Output line: condition met

Input line: I'd appreciate it if you could say whether O=C1/C(=C/c2cccc(Cl)c2Cl)N=C2SCCCN12 has inhibition at least equal to 6%.
Output line: condition met

----------
Give Intrinsic activity for every item shown.
- assayed.target: Cannabinoid receptor 1 (Rattus norvegicus)
- assay.procedure: Intrinsic activity at CB1 receptor in rat brain cortical membranes assessed as stimulation of [35S]GTPgammaS binding at 10 uM by liquid scintillation counting method relative to CP55,940
- Assay type: functional, cell membranes
Give bare numbers, in %.

Answered cases to consult:
>  <molecule.smiles>
O=C1/C(=C/c2cccc(OCc3ccc(Cl)cc3Cl)c2)N=C2SCCCCN12

>  <unit.annotation>
%

>  <numeric.result>
-21

$$$$
>  <molecule.smiles>
Cc1c(C(=O)NN2CCOCC2)nn(-c2ccc(Cl)cc2Cl)c1-c1ccc(I)cc1

>  <unit.annotation>
%

>  <numeric.result>
-42

$$$$

Then there is this molecule:
Input line: Find the measured Intrinsic activity of O=C1/C(=C/c2cccc(OCc3ccccc3)c2)N=C2SCCCN12 with Cannabinoid receptor 1 (Rattus norvegicus) as test system.
Output line: -9

----------
- assayed.target: G-protein coupled receptor 55 (Homo sapiens)
- Sequence (Q9Y2T6 whole entry, the tested form may be a part): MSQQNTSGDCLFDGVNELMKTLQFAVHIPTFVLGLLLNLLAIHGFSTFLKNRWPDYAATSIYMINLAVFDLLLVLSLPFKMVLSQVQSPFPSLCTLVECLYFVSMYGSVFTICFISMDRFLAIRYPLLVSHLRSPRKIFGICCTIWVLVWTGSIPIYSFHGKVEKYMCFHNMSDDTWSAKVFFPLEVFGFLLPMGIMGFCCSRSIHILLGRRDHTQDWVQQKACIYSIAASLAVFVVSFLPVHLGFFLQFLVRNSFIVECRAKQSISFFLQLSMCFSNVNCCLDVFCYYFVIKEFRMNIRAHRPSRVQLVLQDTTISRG
- assay.procedure: Agonist activity at human GPR55 expressed in CHO cells assessed as induction of LPI-induced beta-arrestin recruitment by beta-galactosidase enzyme fragment complementation method relative to LPI
- Assay type: cell-based
- Parameters: concentration or dose not given beside the values
So I've got a bunch of compounds here, and I need their Activity values.
Answers are plain numbers, in %.

>  <compound>
O=C1/C(=C/c2ccc(-c3ccccc3)cc2)N=C2SCCCCN12

>  <unit.annotation>
%

>  <numeric.result>
30

$$$$
>  <compound>
O=C1N=C2SCCCN2C1(c1ccccc1)c1ccccc1

>  <unit.annotation>
%

>  <numeric.result>
53

$$$$
>  <compound>
O=C(Oc1cccc(/C=C2\N=C3SCCCN3C2=O)c1)c1ccccc1

>  <unit.annotation>
%

>  <numeric.result>
49

$$$$
>  <compound>
O=C1N=C2SCCN2C1(c1ccccc1)c1ccccc1

>  <unit.annotation>
%

>  <numeric.result>
50

$$$$
>  <compound>
O=C1/C(=C/c2cccc([N+](=O)[O-])c2)N=C2SCCCN12

>  <unit.annotation>
%

>  <numeric.result>
21

$$$$

Quick batch: Activity for everything below.
1. Cc1ccc(C(=O)Oc2cccc(/C=C3\N=C4SCCCCN4C3=O)c2)cc1
2. O=C1/C(=C/c2ccc(Cl)cc2Cl)N=C2SCCCN12
3. O=C1/C(=C/c2cccc(F)c2F)N=C2SCCCN12
4. COc1ccc(/C=C2\N=C3SCCCN3C2=O)cc1
5. O=C1/C(=C/c2ccc([N+](=O)[O-])cc2)N=C2SCCCN12
6. O=C1/C(=C/c2cccc(OCc3ccc(Cl)c(Cl)c3)c2)N=C2SCCCN12

Output line:
1: 25; 2: 0; 3: 0; 4: 37; 5: 39; 6: 4

Each compound below has a reported value. Please supply its Activity.
1. O=C1/C(=C/c2ccc(Cl)cc2)N=C2SCCCN12
2. COc1ccc(/C=C2\N=C3SCCCN3C2=O)c(OC)c1
3. O=C1/C(=C/c2cccc(OCc3ccc(F)cc3)c2)N=C2SCCCCN12
4. O=C1N=C2SCCCN2/C1=C\C=C\c1ccccc1
5. CN(C)c1ccc(/C=C2\N=C3SCCCN3C2=O)cc1
6. O=C1/C(=C/c2cccc(Oc3ccccc3)c2)N=C2SCCCN12
7. O=C1/C(=C/c2cccc(OCc3ccc(Cl)cc3Cl)c2)N=C2SCCCCN12

Output line:
0
0
19
59
20
13
16

Okay, here is my list. What is Activity for each of these?
1. O=C1/C(=C/c2cccc(Cl)c2Cl)N=C2SCCCN12
2. C/C(=C1/N=C2SCCCCN2C1=O)c1ccccc1
3. O=C1/C(=C/C=C/c2ccccc2)N=C2SCCCN12
4. O=C1/C(=C/c2ccccc2)N=C2SCCCN12

Output line:
3
1
29
32

I have 7 compounds here; please give me Activity for each one.
1. O=C1/C(=C/c2cccc(OCc3cccc(Cl)c3)c2)N=C2SCCCCN12
2. O=C1/C(=C/c2cccc(OCc3ccc(Cl)cc3Cl)c2)N=C2SCCCN12
3. O=C1N2CCSC2=NC1(c1ccccc1)c1ccccc1
4. COc1cccc(/C=C2\N=C3SCCCN3C2=O)c1OC
5. CC(C)c1ccc(/C=C2\N=C3SCCCN3C2=O)cc1
6. O=C1/C(=C/c2ccc(Br)cc2)N=C2SCCCN12
7. O=C1/C(=C/c2ccccc2Cl)N=C2SCCCN12

Output line:
1: 52; 2: 12; 3: 50; 4: 0; 5: 13; 6: 26; 7: 27

Give one value of Activity per listed compound.
1. O=C1/C(=C/c2cccc(Oc3ccccc3)c2)N=C2SCCCCN12
2. O=C1N2CCCCSC2=NC1(c1ccccc1)c1ccccc1
3. O=C1/C(=C/c2ccccc2F)N=C2SCCCN12
4. O=C1/C(=C/c2cccc(OCc3ccc(Cl)cc3)c2)N=C2SCCCCN12
5. O=C1/C(=C/c2ccc(F)cc2F)N=C2SCCCN12
6. O=C1/C(=C/c2cccc(OCc3ccccc3)c2)N=C2SCCCN12

Output line:
5
54
0
70
0
37

For each of the items listed, what is its Activity?
1. O=C(Oc1cccc(/C=C2\N=C3SCCCN3C2=O)c1)c1ccc(Cl)cc1
2. O=C1/C(=C/c2cccc(OCc3ccccc3)c2)N=C2SCCCCN12
3. O=C1/C(=C/c2c(Cl)cccc2Cl)N=C2SCCCN12
4. O=C1/C(=C/c2cccc(OCc3ccc(Cl)cc3)c2)N=C2SCCCN12
5. O=C1/C(=C/c2cccc(OCc3ccccc3Cl)c2)N=C2SCCCN12
6. O=C1N=C2SCCCCN2C1(c1ccccc1)c1ccccc1
7. CCOC(=O)C1CN2C(=NC(=O)C2(c2ccccc2)c2ccccc2)S1 (centres undefined)
8. O=C1N2CCCSC2=NC1(c1ccccc1)c1ccccc1

Output line:
31
4
15
21
10
10
58
19

Can you give me Activity for all of these, one by one?
1. COc1ccc(/C=C2\N=C3SCCCN3C2=O)cc1OC
2. O=C1/C(=C/c2cccc(OCc3ccccc3Cl)c2)N=C2SCCCCN12
3. CCOC(=O)C1CN2C(=O)C(c3ccccc3)(c3ccccc3)N=C2S1 (centres undefined)

Output line:
1. 6
2. 7
3. 39

List reported Activity for each of these compounds:
1. COc1ccccc1/C=C1\N=C2SCCCN2C1=O
2. CCOC(=O)COc1cccc(/C=C2\N=C3SCCCCN3C2=O)c1
3. O=C1/C(=C/c2cccc(Cl)c2)N=C2SCCCN12

Output line:
1: 12; 2: 0; 3: 9
